biological target: OXA-24/40 (Acinetobacter baumannii, UniProt Q8RLA6); experiment: CHDL enzyme inhibition assay with nitrocefin
Sequence (Q8RLA6 entry or part of it): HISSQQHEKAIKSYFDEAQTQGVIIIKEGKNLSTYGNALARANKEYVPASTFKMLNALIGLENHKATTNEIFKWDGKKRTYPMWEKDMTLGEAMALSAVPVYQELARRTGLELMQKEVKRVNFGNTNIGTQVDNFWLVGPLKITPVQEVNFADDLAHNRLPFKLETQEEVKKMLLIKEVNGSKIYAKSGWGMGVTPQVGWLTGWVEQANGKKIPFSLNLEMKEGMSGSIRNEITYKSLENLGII
measure.name: IC50
Answer format reminder: number followed by unit.

Query :: // lookup IC50 for OB(O)c1cccc(OCCc2ccccc2)c1 [Compound 1, [3-(2-Phenylethoxy)phenyl]boronic Acid]
Result :: 385 µM

###

molecular target: OXA-240 (Pseudomonas aeruginosa); assay: CHDL enzyme inhibition assay with nitrocefin; type: biochemical, P. aeruginosa; conditions: OXA-240 383 pM, 100 μM nitrocefin, 5 minute pre-incubation; read-out: IC50 against OXA-240
Sequence (I6VVS5 21-266 limits assumed): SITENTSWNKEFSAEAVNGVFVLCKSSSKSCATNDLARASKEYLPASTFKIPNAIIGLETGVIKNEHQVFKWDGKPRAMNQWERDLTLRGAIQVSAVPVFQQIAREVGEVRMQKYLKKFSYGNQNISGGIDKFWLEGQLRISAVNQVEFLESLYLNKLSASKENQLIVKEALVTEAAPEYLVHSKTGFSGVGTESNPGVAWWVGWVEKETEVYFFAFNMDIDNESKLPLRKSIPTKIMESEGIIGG
measure.name: IC50 (µM)
Field: numeric (µM). Do not append units.

Query :: // lookup IC50 for OB(O)c1cccc(OCCc2ccccc2)c1 [Compound 1, [3-(2-Phenylethoxy)phenyl]boronic Acid]
Result :: 219

###

molecular target: UniProtKB Q6XEC0; test: OXA-48 enzyme inhibition assay with nitrocefin; format: biochemical; settings: Table 3; OXA-48 103 pM, 100 μM nitrocefin, 5 minute pre-incubation; read-out: IC50 against OXA-48
measure.name: IC50
Answer format reminder: number followed by unit.

Query :: // lookup IC50 for OB(O)c1cccc(OCCc2ccccc2)c1 [Compound 1, [3-(2-Phenylethoxy)phenyl]boronic Acid]
Result :: 155 µM

###

target: OXA-210 (Pseudomonas aeruginosa, UniProt F6ME16); assay: CHDL enzyme inhibition assay with nitrocefin
Sequence (F6ME16 entry or part of it): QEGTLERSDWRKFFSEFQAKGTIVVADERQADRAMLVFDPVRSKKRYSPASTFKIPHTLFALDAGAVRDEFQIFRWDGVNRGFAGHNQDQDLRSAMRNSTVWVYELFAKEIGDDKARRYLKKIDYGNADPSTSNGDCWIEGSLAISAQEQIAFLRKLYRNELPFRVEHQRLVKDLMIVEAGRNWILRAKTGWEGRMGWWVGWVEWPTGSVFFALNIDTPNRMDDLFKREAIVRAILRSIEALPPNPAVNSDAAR
measure.name: IC50 (µM)
Field: numeric (µM). Do not append units.

Query :: // lookup IC50 for OB(O)c1cccc(OCCc2ccccc2)c1 [Compound 1, [3-(2-Phenylethoxy)phenyl]boronic Acid]
Result :: 219

###

target: OXA-48 (Klebsiella pneumoniae, UniProt Q6XEC0); test: OXA-48 enzyme inhibition assay with nitrocefin; type: biochemical; conditions: OXA-48 103 pM, nitrocefin 100 μM, 5 min pre-incubation at 30° C., 10 mM MES pH 6.8; read-out: IC50 values on OXA-48 of the screened compounds
Sequence (Q6XEC0 24-265 limits assumed, looked up): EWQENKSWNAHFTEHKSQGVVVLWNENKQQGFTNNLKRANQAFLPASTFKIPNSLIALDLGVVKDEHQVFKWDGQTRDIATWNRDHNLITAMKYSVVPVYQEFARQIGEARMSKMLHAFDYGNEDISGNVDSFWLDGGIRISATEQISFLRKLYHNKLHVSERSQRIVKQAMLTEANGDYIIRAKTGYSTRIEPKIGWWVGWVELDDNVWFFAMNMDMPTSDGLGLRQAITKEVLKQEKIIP
measure.name: IC50 (µM)
Field: numeric (µM). Do not append units.

Query :: // lookup IC50 for OB(O)c1cccc(OCCc2ccccc2)c1 [Compound 1, [3-(2-Phenylethoxy)phenyl]boronic Acid]
Result :: 155

###

biological target: OXA-229 (Acinetobacter bereziniae)
Sequence (I6S7G0 entry or part of it): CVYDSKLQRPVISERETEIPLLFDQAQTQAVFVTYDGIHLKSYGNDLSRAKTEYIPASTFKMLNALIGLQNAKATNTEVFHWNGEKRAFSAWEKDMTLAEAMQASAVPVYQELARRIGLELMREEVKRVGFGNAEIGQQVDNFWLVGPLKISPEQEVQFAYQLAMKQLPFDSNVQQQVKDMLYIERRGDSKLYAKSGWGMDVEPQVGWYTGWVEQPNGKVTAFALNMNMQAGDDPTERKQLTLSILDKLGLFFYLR
measure.name: pIC50
Please note pIC50 is a logarithmic value: minus log10 of concentration in mol/L. Answer with that number alone.

Query :: // lookup pIC50 for OB(O)c1cccc(OCCc2ccccc2)c1 [Compound 1, [3-(2-Phenylethoxy)phenyl]boronic Acid]
Result :: 3.76

###

biological target: OXA-23 (Acinetobacter baumannii, UniProt Q9L4P2)
Sequence (Q9L4P2 31-273 limits assumed): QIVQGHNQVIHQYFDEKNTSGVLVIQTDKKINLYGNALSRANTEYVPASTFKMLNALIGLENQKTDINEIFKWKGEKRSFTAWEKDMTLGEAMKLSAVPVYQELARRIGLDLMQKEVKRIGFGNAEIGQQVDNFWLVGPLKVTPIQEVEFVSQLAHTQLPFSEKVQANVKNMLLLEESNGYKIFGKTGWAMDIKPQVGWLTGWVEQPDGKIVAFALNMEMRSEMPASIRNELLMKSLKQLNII
measure.name: IC50 (µM)
Field: numeric (µM). Do not append units.

Query :: Give recorded IC50 with OXA-23 (Acinetobacter baumannii, UniProt Q9L4P2) for the following molecule: OB(O)c1cccc(OCCc2ccccc2)c1 [Compound 1, [3-(2-Phenylethoxy)phenyl]boronic Acid]
Result :: 276
